Tested on: Agrobacterium tumefaciens
Assay: Antitumor activity against Agrobacterium tumefaciens B6-induced tumor formation at 2.5 ug/disk after 12 days by potato disk assay
Type: functional
Conditions: B6, 288 h
Each entry below carries its reported inhibition at 2.5 µg/disc.
Answer with the value and then the unit.

Molecule	inhibition at 2.5 µg/disc
CC[C@]1(O)C[C@H]2CN(CCc3c([nH]c4ccccc34)[C@@](C(=O)OC)(c3cc4c(cc3OC)N(C=O)[C@H]3[C@@](O)(C(=O)OC)[C@H](OC(C)=O)[C@]5(CC)C=CCN6CC[C@]43[C@@H]65)C2)C1	-17%

(Q) Give reported inhibition at 2.5 µg/disc value for COC(=O)C[C@](O)(CCCC(C)(C)O)C(=O)O[C@@H]1C(OC)=C[C@]23CCCN2CCc2cc4c(cc2[C@H]13)OCO4 [OMACETAXINE MEPESUCCINATE]
(A) -72%

(Q) Give reported inhibition at 2.5 µg/disc value for COc1cc2cc(c1Cl)N(C)C(=O)C[C@H](OC(=O)[C@H](C)N(C)C(=O)C(C)C)[C@]1(C)O[C@H]1[C@H](C)[C@@H]1C[C@@](O)(NC(=O)O1)[C@H](OC)/C=C/C=C(\C)C2OC (some centres undefined)
(A) -100%

(Q) Give reported inhibition at 2.5 µg/disc value for COc1ccc(C[C@H]2C(=O)N[C@@H](C)C(=O)N(C)[C@@H]3C(=O)N(C)[C@@H](Cc4ccc(O)c(c4)Oc4ccc(cc4)[C@@H]3O)C(=O)N[C@@H](C)C(=O)N[C@@H](C)C(=O)N2C)cc1
(A) 14%

Value source: ChEMBL document CHEMBL1151404
